The entries below are paired with their reported pKd.
molecular target: shFcRn (human, UniProt P55899); experiment: SPR pH 6.0
Sequence (P55899 24-297, chain 1 of 2): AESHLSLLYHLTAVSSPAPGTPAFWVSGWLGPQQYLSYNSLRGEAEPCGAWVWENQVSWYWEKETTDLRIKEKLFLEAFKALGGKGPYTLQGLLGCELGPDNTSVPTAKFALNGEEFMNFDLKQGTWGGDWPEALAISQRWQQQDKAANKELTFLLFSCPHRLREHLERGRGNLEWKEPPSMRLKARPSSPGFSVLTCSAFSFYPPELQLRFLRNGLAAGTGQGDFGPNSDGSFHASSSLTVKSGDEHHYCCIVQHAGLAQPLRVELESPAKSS
Sequence (chain, as listed by the source, chain 2 of 2): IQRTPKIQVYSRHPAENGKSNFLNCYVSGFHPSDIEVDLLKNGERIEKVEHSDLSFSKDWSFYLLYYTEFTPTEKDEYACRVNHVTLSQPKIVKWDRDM
Note: pKd values are expressed as the negative base-10 logarithm of concentration in M.

{"binder": "HL161-11G (antibody) chain 1: QMQLVESGGGVVQPGRSLRLSCVGSGFNFNSYGIHWVRQAPGKGLEWVGGIFYDGSQVKYADSVKGRVSISRDNSKNTAYLQMNSLRAEDTAVYYCARRNLLDYWGQGTVVTVSS chain 2: NFMLTQPASVSGSPGQSITISCTGSSSDVGGYNYVSWYQQHPGKAPQLIIYDVTKRPSGVSNRFSGSKSGNSASLTISGLQAEDEADYYCSSYSSSTFYVFGTGTKVTVL", "pKd": 9.80}

Specify reported pKd for the binder shown: HL161-6C (antibody) chain 1: QVQLVESGAEVKKPGASVKVSCKASGYTFTSYYMHWVRQAPGQGLEWMGIINPSGGSTSYAQKFQGRVTMTRDTSTSTVYMELSSLRSEDTAVYYCARGGGAFDIWGQGTMVTVSS chain 2: DIQMTQSPSSVSASVGDRVTITCRASQGISNWVAWYQQKPGKAPKLLIYAASSLQSGVPSRFSGSGSGTDFTLTISSLQPEDFAIYYCQQGHSFPYTFGQGTKVEIK 8.72
